Test system: QSK;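 further: KINOMEscan kinase panel screen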
Assay Setup: concentration: 1 μM,replicates: in singlicate; n = 1
Readout Type: %Inh (%)
Please state the figure in %; there is no need to write the unit.

Can you look up %Inh on QSK for CN(C)CC(O)COc1ccc(Nc2nccc(-c3cnn4nc(N5CCOCC5)ccc34)n2)cc1 (stereo not drawn) ?
43

Repeat for the following compound: `C[C@@H](Oc1cc(-c2cnn(C3CCNCC3)c2)cnc1N)c1c(Cl)ccc(F)c1Cl`
0

What would you report for `C=CC(=O)Nc1cc2c(Nc3ccc(F)c(Cl)c3)ncnc2cc1OCCCN1CCOCC1` ?
1

Note, next up: `CCN(CC)CCCCNc1ncc2cc(-c3c(Cl)cccc3Cl)c(NC(=O)NC(C)(C)C)nc2n1`
39

Try `O=C(NCCNc1ccnc(NCc2ccc(F)cc2)n1)c1cc2ccccc2s1` next.
7

// next record `Cc1ccc(-n2nc(C(C)(C)C)cc2NC(=O)Nc2ccc(OCCN3CCOCC3)c3ccccc23)cc1`
1

Same again, this time with `Cc1occc1-c1nc(N)c(OC[C@@H](N)Cc2c[nH]c3ccccc23)cc1-c1cc2c(C)n[nH]c2cn1`
90.4

Further, for `CCn1c(-c2nonc2N)nc2c(C#CC(C)(C)O)nc(OCCN)cc21.Cl.Cl` ?
23

Can you handle `C[C@H]1Oc2cc(cnc2N)-c2c(nn(C)c2C#N)CN(C)C(=O)c2ccc(F)cc21` next?
0

Now the same for `C[C@@H]1CCN(C(=O)CC#N)C[C@@H]1N(C)c1ncnc2[nH]ccc12`
0

What would you report for `Cl.Oc1cc(-c2nc(-c3ccccc3)[nH]c2-c2ccncc2)ccc1Cl` ?
33

Ok, now `Cc1cc(C(=O)Nc2ccc(Oc3ccc4nc(NC(=O)C5CC5)cn4n3)cc2)nn1-c1ccccc1`
0

And the next one, `Nc1nc(Nc2ccccc2)cc(-c2ccc3c(N)n[nH]c3c2)n1` ?
0

For `Cl.Cl.NC[C@H](Cc1ccc(C(F)(F)F)cc1)NC(=O)c1cc(Br)c(-c2ccnc3[nH]ccc23)s1` then?
14

Also need `O=C(NCCCN1CCOC1=O)c1cnc(NCc2cc(Cl)ccc2Cl)nc1NC1CCCC1` , thanks.
0

Also Cl.Cl.Nc1nc(-c2ccc3c(N)n[nH]c3c2)cc(N2CCCC(NC(=O)c3ccccc3)C2)n1 (stereo not drawn) , if possible.
0

What do you get for `Cl.Cl.NC[C@H](CC1CCCCC1)NC(=O)c1cc(Br)c(-c2ccnc3[nH]ccc23)s1` ?
5

And `CN(C)CCOc1ccc(-c2cc(-c3c[nH]nc3-c3ccccn3)ccn2)cc1` ?
9

One more compound: `Cc1cc2cn[nH]c2cc1-c1cccc2c(N)c(C(N)=O)nnc12`
15

Now the compound `CC(C)Nc1cc(-c2ccc3c(N)n[nH]c3c2)nc(N)n1`
0

Try this compound too: `COc1ccc(C[C@@H](CN)NC(=O)c2cc(Br)c(-c3ccnc4[nH]ccc34)s2)cc1.Cl.Cl`
0
